# PROTOCOL NOTES: Mitochondrial toxicity (Glu/Gal) assay
# Assay type: cell-based
# RECORDED CONDITIONS: ratio IC50 glu / IC50 gal
ASSAY READOUT: Δ IC50, glu/IC50, gal

>  <COMPOUND STRUCTURE>
Cc1ccc2nc(C)c(C(=O)NCc3ccc(-c4nc5n(n4)CCN(S(=O)(=O)C(F)(F)F)C5)cc3)n2c1

>  <RELATION QUALIFIER>
>

>  <MEASURED NUMBER>
1.13

$$$$
>  <COMPOUND STRUCTURE>
CCc1nc2nc(C)c(C)cn2c1C(=O)NCc1ccc(-c2nc3n(n2)CCN(S(=O)(=O)C(F)(F)F)C3)cc1

>  <RELATION QUALIFIER>
<

>  <MEASURED NUMBER>
0.98

$$$$
>  <COMPOUND STRUCTURE>
CCc1nc2ccc(F)cn2c1C(=O)NCc1ccc(-c2nc3n(n2)CCN(S(=O)(=O)C(F)(F)F)C3)cc1

>  <RELATION QUALIFIER>
=

>  <MEASURED NUMBER>
1.51

$$$$
>  <COMPOUND STRUCTURE>
O=C(NCc1ccc(-c2nc3n(n2)CCN(S(=O)(=O)C(F)(F)F)C3)c(F)c1)c1c(C(F)F)nc2ccc(Cl)cn12

>  <RELATION QUALIFIER>
=

>  <MEASURED NUMBER>
0.96

$$$$
>  <COMPOUND STRUCTURE>
CCc1nc2ncc(C)cn2c1C(=O)NCc1ccc(-c2nn3c(c2C)CN(S(=O)(=O)C(F)(F)F)CC3)c(F)c1

>  <RELATION QUALIFIER>
=

>  <MEASURED NUMBER>
3.38

$$$$
>  <COMPOUND STRUCTURE>
CCc1nc2ncc(C)cn2c1C(=O)NCc1cccc(Cc2cc3n(n2)CCN(S(=O)(=O)C(F)(F)F)C3)c1

>  <RELATION QUALIFIER>
>

>  <MEASURED NUMBER>
1.7

$$$$
>  <COMPOUND STRUCTURE>
CCc1nc2c(Cl)c(OC)ccn2c1C(=O)NCc1ccc(-c2nc3n(n2)CCN(S(=O)(=O)C(F)(F)F)C3)c(F)c1

>  <RELATION QUALIFIER>
>

>  <MEASURED NUMBER>
2.93

$$$$
>  <COMPOUND STRUCTURE>
CCc1nc2cc(NC)c(Cl)cn2c1C(=O)NCc1ccc(-c2nc3n(n2)CCN(S(=O)(=O)C(F)(F)F)C3)c(F)c1

>  <RELATION QUALIFIER>
=

>  <MEASURED NUMBER>
1.25

$$$$
>  <COMPOUND STRUCTURE>
CCc1nc2ccc(C(C)C)cn2c1C(=O)NCc1ccc(-c2nc3n(n2)CCN(S(=O)(=O)C(F)(F)F)C3)cc1

>  <RELATION QUALIFIER>
>

>  <MEASURED NUMBER>
1.25

$$$$
>  <COMPOUND STRUCTURE>
CCc1nc2ncc(C)cn2c1C(=O)NCc1ccc(-c2nn3c(c2C)CN(S(=O)(=O)C(F)(F)F)CC3)cc1

>  <RELATION QUALIFIER>
>

>  <MEASURED NUMBER>
6.65

$$$$
>  <COMPOUND STRUCTURE>
CCc1nc2ccc(Cl)cn2c1C(=O)NCc1ccc(-c2nc3n(n2)CCN(S(=O)(=O)C(F)(F)F)C3)c(F)c1

>  <RELATION QUALIFIER>
=

>  <MEASURED NUMBER>
0.91

$$$$
>  <COMPOUND STRUCTURE>
CCc1nc2ccc(C)cn2c1C(=O)NCc1ccc(-c2nc3n(n2)CCN(CCOC)C3)cc1

>  <RELATION QUALIFIER>
>

>  <MEASURED NUMBER>
1.15

$$$$

###

# PROTOCOL NOTES: Chemical stability testing (LCMS)
# Type: physicochemical
# RECORDED CONDITIONS: 72 h, 30 µM
Each record here notes measured chemical stability, % by LCMS.
ASSAY READOUT: chemical stability, % by LCMS (%)

>  <COMPOUND STRUCTURE>
CCc1nc2ccc(Cl)cn2c1C(=O)NCc1cnc(-c2nc3n(n2)CCN(S(=O)(=O)C(F)(F)F)C3)c(F)c1

>  <ASSAY READOUT>
chemical stability, % by LCMS

>  <MEASURED NUMBER>
97.03

$$$$
>  <COMPOUND STRUCTURE>
CCc1nc2cc(N)c(Cl)cn2c1C(=O)NCc1ccc(-c2nc3n(n2)CCN(S(=O)(=O)C(F)(F)F)C3)c(F)c1

>  <ASSAY READOUT>
chemical stability, % by LCMS

>  <MEASURED NUMBER>
100

$$$$
>  <COMPOUND STRUCTURE>
CCc1nc2nc(N)c(Cl)cn2c1C(=O)NCc1ccc(-c2nc3n(n2)CCN(S(=O)(=O)C(F)(F)F)C3)c(F)c1

>  <ASSAY READOUT>
chemical stability, % by LCMS

>  <MEASURED NUMBER>
96.14

$$$$
>  <COMPOUND STRUCTURE>
CCc1nc2ncc(Cl)cn2c1C(=O)NCc1ccc(-c2nc3n(n2)CCN(S(=O)(=O)C(F)(F)F)C3)cc1

>  <ASSAY READOUT>
chemical stability, % by LCMS

>  <MEASURED NUMBER>
100

$$$$
>  <COMPOUND STRUCTURE>
CCc1nc2ncc(C)cn2c1C(=O)NCc1ccc(-c2nc3n(n2)CCN(S(=O)(=O)C(F)(F)F)C3)c(F)c1

>  <ASSAY READOUT>
chemical stability, % by LCMS

>  <MEASURED NUMBER>
100

$$$$
>  <COMPOUND STRUCTURE>
CCc1nc2cc(OC)c(Cl)cn2c1C(=O)NCc1ccc(-c2nc3n(n2)CCN(S(=O)(=O)C(F)(F)F)C3)c(F)c1

>  <ASSAY READOUT>
chemical stability, % by LCMS

>  <MEASURED NUMBER>
97.03

$$$$

###

# PROTOCOL NOTES: LM CLint (microsomal stability), mouse
# Type: in vitro ADME
# RECORDED CONDITIONS: microsomes

>  <COMPOUND STRUCTURE>
CCc1nc2ncc(C)cn2c1C(=O)NCc1ccc(-c2nc3n(n2)CCN(S(=O)(=O)C(F)(F)F)C3)c(F)c1

>  <microsomal CLint at 1 µM>
< 7.7 µL/min/mg

$$$$
>  <COMPOUND STRUCTURE>
CCc1nc2ncc(Cl)cn2c1C(=O)NCc1ccc(-c2nc3n(n2)CCN(S(=O)(=O)C(F)(F)F)C3)cc1

>  <microsomal CLint at 1 µM>
< 7.7 µL/min/mg

$$$$

###

Recorded measurements of Δ IC50, glu/IC50, gal, one per entry
# PROTOCOL NOTES: Mitochondrial toxicity (Glu/Gal) assay
# Type: cell-based
# RECORDED CONDITIONS: ratio IC50 glu / IC50 gal

>  <COMPOUND STRUCTURE>
CCc1nc2cc(C)c(Cl)cn2c1C(=O)NCc1ccc(-c2nc3n(n2)CCN(S(=O)(=O)C(F)(F)F)C3)c(F)c1

>  <Δ IC50, glu/IC50, gal>
1.15

$$$$
>  <COMPOUND STRUCTURE>
O=C(NCc1ccc(-c2cn3c(n2)CN(S(=O)(=O)C(F)(F)F)CC3)cc1)c1c(C(F)(F)F)nc2ccccn12

>  <Δ IC50, glu/IC50, gal>
>3.08

$$$$
>  <COMPOUND STRUCTURE>
O=C(NCc1ccc(-c2nc3n(n2)CCN(S(=O)(=O)C(F)(F)F)C3)c(F)c1)c1c(C(F)(F)F)nc2ccccn12

>  <Δ IC50, glu/IC50, gal>
0.66

$$$$
>  <COMPOUND STRUCTURE>
Cc1nc2sc(Cl)cn2c1C(=O)NCc1ccc(-c2nc3n(n2)CCN(S(=O)(=O)C(F)(F)F)C3)cc1

>  <Δ IC50, glu/IC50, gal>
>11.52

$$$$
>  <COMPOUND STRUCTURE>
Cc1cn2c(C(=O)NCc3ccc(-c4nc5n(n4)CCN(S(=O)(=O)C(F)(F)F)C5)cc3)c(C)nc2s1

>  <Δ IC50, glu/IC50, gal>
>12.72

$$$$
>  <COMPOUND STRUCTURE>
CCc1nc2cc(Cl)c(C)cn2c1C(=O)NCc1ccc(-c2nc3n(n2)CCN(S(=O)(=O)C(F)(F)F)C3)cc1

>  <Δ IC50, glu/IC50, gal>
>2.26

$$$$
>  <COMPOUND STRUCTURE>
CCc1nc2ncc(C)cn2c1C(=O)NC(C)(C)c1ccc(-c2nc3n(n2)CCN(S(=O)(=O)C(F)(F)F)C3)cc1

>  <Δ IC50, glu/IC50, gal>
1.12

$$$$
>  <COMPOUND STRUCTURE>
O=C(NCc1ccc(-c2cc3n(n2)CCN(S(=O)(=O)C(F)(F)F)C3)cc1)c1c(C(F)(F)F)nc2ccccn12

>  <Δ IC50, glu/IC50, gal>
>1.54

$$$$
>  <COMPOUND STRUCTURE>
CCc1nc2ncc(C)cn2c1C(=O)NCc1ccc(C2CN(c3nc4n(n3)CCN(S(=O)(=O)C(F)(F)F)C4)C2)cc1

>  <Δ IC50, glu/IC50, gal>
>3.44

$$$$
>  <COMPOUND STRUCTURE>
CCc1nc2ncc(C)cn2c1C(=O)NCc1cccc(-c2nc3n(n2)CCN(S(=O)(=O)C(F)(F)F)C3)c1

>  <Δ IC50, glu/IC50, gal>
>1.34

$$$$
>  <COMPOUND STRUCTURE>
CCc1nc2nc(C)c(Cl)cn2c1C(=O)NCc1ccc(-c2nc3n(n2)CCN(S(=O)(=O)C(F)(F)F)C3)cc1

>  <Δ IC50, glu/IC50, gal>
1.23

$$$$
>  <COMPOUND STRUCTURE>
Cc1c(-c2ccc(CNC(=O)c3c(C(F)(F)F)nc4ccccn34)cc2)nn2c1CN(S(=O)(=O)C(F)(F)F)CC2

>  <Δ IC50, glu/IC50, gal>
>4.31

$$$$
>  <COMPOUND STRUCTURE>
Cc1cnc2nc(C3CC3)c(C(=O)NCc3ccc(-c4nc5n(n4)CCN(S(=O)(=O)C(F)(F)F)C5)c(C)c3)n2c1

>  <Δ IC50, glu/IC50, gal>
1.81

$$$$
>  <COMPOUND STRUCTURE>
CCc1nc2ccc(Cl)cn2c1C(=O)NCc1ccc(-c2cc3n(n2)CCN(S(=O)(=O)C(F)(F)F)C3)cc1

>  <Δ IC50, glu/IC50, gal>
>1.57

$$$$
